B1: TRIM29 (parent)
chain: RKCPVHGKTMELFCQTDQTCICYL

Variants of: B1
Test: protein stability index of a GFP-peptide fusion (GPS, HEK-293T) (PSI 1-6); higher = more stable;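 note: lentivirally expressed fusions sorted by FACS into six bins by GFP to DsRed ratio, PSI derived from sequencing read proportions per bin multiplied by bin number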
Details: c terminus: a fixed tail appended
Label scheme, based on protein stability index: lo (below 2), med (2 to below 3), hi (3 or more)

Class? Entry: L12H med

Class? Entry: G7I hi

Class? Entry: C3D med

Class? Entry: L24Q hi

Class? Entry: R1D lo

Class? Entry: D17K lo

Class? Entry: T9M med

Class? Entry: D17H lo

Class? Entry: G7A med

Class? Entry: G7C med
